- system: fructose-1,6-bisphosphatase (LmFBPase) (Leishmania major, UniProt O97193)
- Construct: gene FBP; C-terminal His6-tagged LmFBPase
- Sequence (O97193 entry or part of it): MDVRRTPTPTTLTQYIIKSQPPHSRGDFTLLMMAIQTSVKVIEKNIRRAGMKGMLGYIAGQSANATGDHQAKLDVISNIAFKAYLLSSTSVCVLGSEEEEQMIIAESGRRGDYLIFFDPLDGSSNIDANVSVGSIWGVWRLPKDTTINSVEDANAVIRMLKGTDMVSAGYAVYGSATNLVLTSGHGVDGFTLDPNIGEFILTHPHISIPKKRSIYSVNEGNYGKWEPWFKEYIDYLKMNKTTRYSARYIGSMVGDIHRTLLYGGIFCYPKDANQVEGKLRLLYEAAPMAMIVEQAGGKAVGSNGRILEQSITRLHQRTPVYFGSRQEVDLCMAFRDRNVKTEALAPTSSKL
- protocol: PGI/G6PDH coupled enzyme activity assay
- Type: biochemical
measuredEndpoint: pKi
pKi here is simply -log10 of the concentration when that concentration is written in mol/L.

INPUT: So what does the record say about pKi for O=P(O)(O)OC[C@H]1O[C@@](CO)(OP(=O)(O)O)[C@@H](O)[C@@H]1O [Fructose 2,6-bisphosphate] ?
OUTPUT: 5.72
